Measured selectivity ratio, listed per entry.
tested on: human 20S proteasome subunit beta-5i versus Mycobacterium tuberculosis 20S open gate mutant; assay: Selectivity index, ratio of IC50 for human 20S proteasome subunit beta-5i to IC50 for Mycobacterium tuberculosis 20S open gate mutant; assay type: toxicity; details: read-out: Ratio IC50

{"smiles.notation": "Cc1cc(C(=O)N[C@@H](CC(=O)N2CCC[C@@H]2c2ccccc2)C(=O)N[C@@H](C)C(=O)NCc2c(F)cccc2F)no1", "qualifier": "=", "selectivity ratio": 2870}
{"smiles.notation": "Cc1cc(C(=O)N[C@@H](CC(=O)N2CCC[C@@H]2c2ccccc2)C(=O)N[C@@H](C)c2ncc(-c3ccc(F)cc3F)[nH]2)no1", "qualifier": ">", "selectivity ratio": 7700}
{"smiles.notation": "Cc1cc(C(=O)N[C@@H](CC(=O)N2CCC[C@@H]2c2ccccc2)C(=O)N[C@@H](C)c2ncc(-c3ccccc3F)[nH]2)no1", "qualifier": ">", "selectivity ratio": 12500}
{"smiles.notation": "COc1ccccc1CNC(=O)[C@H](C)NC(=O)[C@H](CC(=O)N1CCC[C@@H]1c1ccccc1)NC(=O)c1cc(C)on1", "qualifier": ">", "selectivity ratio": 1500}
{"smiles.notation": "Cc1cc(C(=O)N[C@@H](CC(=O)N2CCC[C@@H]2c2ccccc2)C(=O)N[C@@H](C)c2ncc(-c3ccccc3)[nH]2)no1", "qualifier": ">", "selectivity ratio": 4000}
{"smiles.notation": "Cc1cc(C(=O)N[C@@H](CC(=O)N2CCC[C@@H]2c2ccccc2)C(=O)N[C@@H](C)C(=O)NCc2ccc(F)cc2F)no1", "qualifier": "=", "selectivity ratio": 2630}
{"smiles.notation": "Cc1cc(C(=O)N[C@@H](CC(=O)N2CCCC[C@@H]2C)C(=O)N[C@@H](C)C(=O)NCc2ccc(F)cc2F)no1", "qualifier": "=", "selectivity ratio": 3.7}

---

system: human 20S proteasome subunit beta-5c versus Mycobacterium tuberculosis 20S open gate mutant; test: Selectivity index, ratio of IC50 for human 20S proteasome subunit beta-5c to IC50 for Mycobacterium tuberculosis 20S open gate mutant; type: toxicity; conditions: read-out: Ratio IC50
endpoint: selectivity ratio

{"smiles.notation": "Cc1cc(C(=O)N[C@@H](CC(=O)N2CCC[C@@H]2c2ccccc2)C(=O)N[C@@H](C)C(=O)NCc2c(F)cccc2F)no1", "meas.value": "> 14300"}
{"smiles.notation": "Cc1cc(C(=O)N[C@@H](CC(=O)N2CCC[C@@H]2c2ccccc2)C(=O)N[C@@H](C)C(=O)NCc2ccc(F)cc2F)no1", "meas.value": "> 33300"}
{"smiles.notation": "Cc1cc(C(=O)N[C@@H](CC(=O)N2CCC[C@@H]2c2ccccc2)C(=O)N[C@@H](C)c2ncc(-c3ccccc3)[nH]2)no1", "meas.value": "> 4000"}
{"smiles.notation": "Cc1cc(C(=O)N[C@@H](CC(=O)N2CCC[C@@H]2c2ccccc2)C(=O)N[C@@H](C)c2ncc(-c3ccccc3F)[nH]2)no1", "meas.value": "> 12500"}
{"smiles.notation": "Cc1cc(C(=O)N[C@@H](CC(=O)N2CCCC[C@@H]2C)C(=O)N[C@@H](C)C(=O)NCc2ccc(F)cc2F)no1", "meas.value": 202}
{"smiles.notation": "COc1ccccc1CNC(=O)[C@H](C)NC(=O)[C@H](CC(=O)N1CCC[C@@H]1c1ccccc1)NC(=O)c1cc(C)on1", "meas.value": "> 1500"}
{"smiles.notation": "Cc1cc(C(=O)N[C@@H](CC(=O)N2CCC[C@@H]2c2ccccc2)C(=O)N[C@@H](C)c2ncc(-c3ccc(F)cc3F)[nH]2)no1", "meas.value": "> 7700"}
